System: CYP450s (isozyme not named)
ASSAY_PROTOCOL: In vitro cocktail CYP450 activity assay, isozyme not given
Assay type: in vitro ADME, SD rat
CONDITION_SET: Sprague-Dawley, rat, pH 7.4
pIC50: −log10 of the molar value.
OBSERVED_PROPERTY: pIC50

Specify reported pIC50 for the compound shown: "O=c1c(O)c(-c2ccc(O)c(O)c2)oc2cc(O)cc(O)c12"
≥ 4.82

###

We begin with a simple list: items and their reported concentration at 6 h.
ASSAY_PROTOCOL: in vivo
Set-up: species or system Sprague-Dawley (SD) rats
CONDITION_SET: Sprague-Dawley, plasma; 6 h after oral CNP, rat
Write the numeric value and follow it with the unit.

Below, each entry is followed by its recorded concentration at 6 h result.
• CC(C)=CCC[C@](C)(O[C@@H]1O[C@H](CO)[C@@H](O)[C@H](O)[C@H]1O)[C@H]1CC[C@]2(C)[C@@H]1[C@H](O)C[C@@H]1[C@@]3(C)CC[C@H](O)C(C)(C)[C@@H]3[C@@H](O[C@@H]3O[C@H](CO)[C@@H](O)[C@H](O)[C@H]3O)C[C@]12C [GRg1, ginsenoside Rg1] = 0.37 ng/mL
• CC(C)=CCC[C@](C)(O[C@@H]1O[C@H](CO[C@@H]2O[C@H](CO)[C@@H](O)[C@H](O)[C@H]2O)[C@@H](O)[C@H](O)[C@H]1O)[C@H]1CC[C@]2(C)[C@@H]1[C@H](O)C[C@@H]1[C@@]3(C)CC[C@H](O[C@@H]4O[C@H](CO)[C@@H](O)[C@H](O)[C@H]4O[C@@H]4O[C@H](CO)[C@@H](O)[C@H](O)[C@H]4O)C(C)(C)[C@@H]3CC[C@]12C [GRb1, ginsenoside Rb1] = 113 ng/mL

Read the next record carefully.
Specify reported concentration at 6 h for the compound shown: CC(C)=CCC[C@](C)(O[C@@H]1O[C@H](CO)[C@@H](O)[C@H](O)[C@H]1O)[C@H]1CC[C@]2(C)[C@@H]1[C@H](O)C[C@@H]1[C@@]3(C)CC[C@H](O)C(C)(C)[C@@H]3[C@@H](O[C@@H]3O[C@H](CO)[C@@H](O)[C@H](O)[C@H]3O[C@@H]3O[C@@H](C)[C@H](O)[C@@H](O)[C@H]3O)C[C@]12C [GRe, ginsenoside Re]
0.23 ng/mL

###

We begin with a simple list: items and their reported pIC50.
Test system: CYP2D6
ASSAY_PROTOCOL: in vitro
CONDITION_SET: microsomes
Description: (OHBUP-[D6]) and 5 nM 4′-hydroxydiclofenac-[^13C6] (OHDIC-[^13C6]) as internal standards (ISs). […] standard addition experiments. Each group included four concentration levels. For the PK […] The probe compounds, viz. […] chosen after incubating all the recruited substrates. In order to assure the linear relationship […] The incubation system was also optimized in terms of substrate concentrations. The substrates concentrations of […]
pIC50: −log10 of the molar value.

Below, each entry is followed by its recorded pIC50 result.
• O=c1c(O[C@@H]2O[C@H](CO)[C@@H](O)[C@H](O)[C@H]2O[C@@H]2O[C@H](CO)[C@@H](O)[C@H](O)[C@H]2O)c(-c2ccc(O)cc2)oc2cc(O)cc(O)c12 [A14, kaempferol-3-O-sophoroside] = < 3.70
• O=c1c(OC2O[C@H](CO)[C@@H](O)[C@H](O)[C@H]2O)c(-c2ccc(O)cc2)oc2cc(OC3O[C@H](CO)[C@@H](O)[C@H](O)[C@H]3O)c(OC3O[C@H](CO)[C@@H](O)[C@H](O)[C@H]3O)c(O)c12 (stereo partly drawn) = < 3.70

Read the next record carefully.
Specify reported pIC50 for the compound shown: O=C(O)[C@H]1OC(Oc2cc3oc(-c4ccc(O)cc4)cc(=O)c3c(O)c2OC2O[C@H](CO)[C@@H](O)[C@H](O)[C@H]2O)[C@H](O)[C@@H](O)[C@@H]1O (stereo partly drawn)
< 3.70
